Exercise: for every item that follows, state its recorded bioavailability.
# assay_text: Oral bioavailability in Sprague-Dawley rat at 3 mg/kg
# Type: ADME, organism-based
# particulars: in vivo
Just the number in %, nothing appended.

Ask | State its bioavailability for this compound: O=C(O)/C=C/c1ccc(Oc2c(-c3ccc(C(F)(F)F)cc3)sc3cc(O)ccc23)cc1
Reply | 74

Ask | State its bioavailability for this compound: O=C(O)/C=C/c1ccc(Oc2c(-c3ccc(O)cc3)sc3cc(O)ccc23)cc1
Reply | 6

Ask | State its bioavailability for this compound: CC(F)(F)c1cc(F)ccc1-c1sc2cc(O)ccc2c1Oc1ccc(/C=C/C(=O)O)cc1
Reply | 33

Ask | State its bioavailability for this compound: O=C(O)/C=C/c1ccc(Oc2c(-c3ccc(F)cc3)sc3cc(O)ccc23)cc1
Reply | 33
